# System: HCT116 cells (WT BRAF), ERK phospho-T202/Y204
# assay-notes: HTRF assay for P-ERK determination in HCT116 cells (BRAF activation, paradox)
# Format: cell-based
# test-settings: Homo sapiens, HCT-116; HCT116 cells, 1 hour drug incubation; activation relative to maximum Dabrafenib-mediated activation (100%); top concentration 10 μM; read-out: P-ERK_HCT-116: EC50—50PCT
quantity-measured: EC50 (µM)

[P] CC(=O)N[C@@H]1CC[C@@H](Nc2ncc3cc(-c4c(F)ccc(NS(=O)(=O)N5CC[C@@H](F)C5)c4F)c(=O)n(C)c3n2)C1 (racemic) [Example 23]
[Q] Cn1c(=O)c(-c2c(F)ccc(NS(=O)(=O)N3CC[C@@H](F)C3)c2F)cc2cnc(NCCN3CCN(C(=O)OC(C)(C)C)CC3)nc21 [Example 45]
Q: Select the item whose EC50 value is smaller, choosing between P and Q . Give the chosen item's label as your response.
Result: Q

* * *

# Tested on: A375 cells (V600E mutated BRAF), ERK phospho-T202/Y204
# assay-notes: HTRF assay for P-ERK determination in A375 cells (BRAF inhibition)
# Type: cell-based
# test-settings: Homo sapiens, A-375, 1 hour drug incubation, DMSO = 100%, 10 μM Dabrafenib = 0%, top concentration 10 μM, read-out: P-ERK_A375: IC50
quantity-measured: IC50 (nM)

Examples with answers:
| compound | assayed-target | IC50, nM |
| --- | --- | --- |
| Cn1c(=O)c(-c2c(F)ccc(NS(=O)(=O)N3CC[C@@H](F)C3)c2F)cc2cnc(NCC3CC3)nc21 | A375 cells (V600E mutated BRAF), ERK phospho-T202/Y204 | 9.9 |
| Cl.O=c1c(-c2c(F)ccc(NS(=O)(=O)N3CC[C@@H](F)C3)c2F)cc2cnc(NCC3CC3)nc2n1C1CCNC1 (mixture of isomers) [Example 40, hydrochloride] | A375 cells (V600E mutated BRAF), ERK phospho-T202/Y204 | 3810 |
| CCN(C)S(=O)(=O)Nc1ccc(F)c(-c2cc3cnc(NCC4CC4)nc3n(C)c2=O)c1F | A375 cells (V600E mutated BRAF), ERK phospho-T202/Y204 | 71 |

[I] CC(=O)N1CCC(CNc2ncc3cc(-c4c(F)ccc(NS(=O)(=O)N5CC[C@@H](F)C5)c4F)c(=O)n(C)c3n2)CC1
[II] CC(C)(C)OC(=O)N1CCC(n2c(=O)c(-c3c(F)ccc(NS(=O)(=O)N4CC[C@@H](F)C4)c3F)cc3cnc(NCC4CC4)nc32)C1 (mixture of isomers)
Q: Return label of the item with the larger IC50. Candidates: I , II . Give the chosen item's label as your response.
Result: II

[P] CCN(C)S(=O)(=O)Nc1ccc(F)c(-c2cc3cnc(NCC4CC4)nc3n(CCOCc3ccccc3)c2=O)c1F
[Q] CC(=O)N1CCC(n2c(=O)c(-c3c(F)ccc(NS(=O)(=O)N4CC[C@@H](F)C4)c3F)cc3cnc(NCC4CC4)nc32)C1 (mixture of isomers)
Q: Return label of the item with the larger IC50. Candidates: P , Q . Give the chosen item's label as your response.
Result: P
(P: 1900 nM, Q: 378 nM)

[P] CC(=O)NCCOCCNc1ncc2cc(-c3c(F)ccc(NS(=O)(=O)N4CC[C@@H](F)C4)c3F)c(=O)n(C)c2n1
[Q] Cn1c(=O)c(-c2c(F)ccc(NS(=O)(=O)N3CC[C@@H](F)C3)c2F)cc2cnc(NCCOc3ccccc3)nc21
Q: Select the item whose IC50 value is smaller, choosing between P and Q . Give the chosen item's label as your response.
Result: Q

* * *

Measured Kd (BRAF (Homo sapiens))
quantity-measured: Kd (nM)

| compound | assayed-target | Kd [nM] |
| --- | --- | --- |
| CC(=O)N1CCC(CCNc2ncc3cc(-c4c(F)ccc(NS(=O)(=O)N5CC[C@@H](F)C5)c4F)c(=O)n(C)c3n2)CC1 [Example 20] | BRAF (Homo sapiens) | 10.2 |
| Cl.Cn1c(=O)c(-c2c(F)ccc(NS(=O)(=O)N3CC[C@@H](F)C3)c2F)cc2cnc(NCCOCCN)nc21 [Example 15, hydrochloride] | BRAF (Homo sapiens) | 81.7 |
| CC(=O)NCCOCCOCCn1c(=O)c(-c2c(F)ccc(NS(=O)(=O)N3CC[C@@H](F)C3)c2F)cc2cnc(NCC3CC3)nc21 [Example 41] | BRAF (Homo sapiens) | 21.2 |
| Cn1c(=O)c(-c2c(F)ccc(NS(=O)(=O)C3CCCC3)c2F)cc2cnc(NCCC3CCN(C(=O)OC(C)(C)C)CC3)nc21 [Example 13] | BRAF (Homo sapiens) | 350 |
| Cn1c(=O)c(-c2c(F)ccc(NS(=O)(=O)N3CCCC3)c2F)cc2cnc(NCCC3CCN(C(=O)OC(C)(C)C)CC3)nc21 [Example 8] | BRAF (Homo sapiens) | 261 |
| CC(=O)N(C)Cc1cccc(CCNc2ncc3cc(-c4c(F)ccc(NS(=O)(=O)N5CC[C@@H](F)C5)c4F)c(=O)n(C)c3n2)c1 [Example 36] | BRAF (Homo sapiens) | 8.9 |

[P] CC(=O)N(C)CCCNc1ncc2cc(-c3c(F)ccc(NS(=O)(=O)N4CC[C@@H](F)C4)c3F)c(=O)n(C)c2n1 [Example 27]
[Q] CCN(C)S(=O)(=O)Nc1cccc(-c2cc3cnc(NCCC4CCN(C(C)=O)CC4)nc3n(C)c2=O)c1C#N [Example 37]
Q: Select the item whose Kd value is smaller, choosing between P and Q . Give the chosen item's label as your response.
Result: Q

* * *

# Tested on: HCT116 cells (WT BRAF), ERK phospho-T202/Y204
# assay-notes: HTRF assay for P-ERK determination in HCT116 cells (BRAF activation, paradox)
# Type: cell-based
# test-settings: Homo sapiens, HCT-116; HCT116 cells, 1 hour drug incubation; activation relative to maximum Dabrafenib-mediated activation (100%); top concentration 10 μM; read-out: P-ERK_HCT-116: EC50—50PCT
pEC50: −log10 of the molar value.
quantity-measured: pEC50

Examples with answers:
| molecule | pEC50 |
| --- | --- |
| CN(C1CC1)S(=O)(=O)Nc1ccc(F)c(-c2cc3cnc(NCC4CC4)nc3n(C)c2=O)c1F | 5.65 |
| Cn1c(=O)c(-c2c(F)ccc(NS(=O)(=O)N3CC[C@@H](F)C3)c2F)cc2cnc(NCC3CC3)nc21 | 6.19 |
| Cn1c(=O)c(-c2c(F)ccc(NS(=O)(=O)N3CC[C@@H](F)C3)c2F)cc2cnc(NCCc3ccccc3)nc21 | 6.31 |
| CCN(C)S(=O)(=O)Nc1ccc(F)c(-c2cc3cnc(NCCCN(C)C(C)=O)nc3n(C)c2=O)c1F | 5.24 |
| CC(=O)N1CCC(n2c(=O)c(-c3c(F)ccc(NS(=O)(=O)N4CC[C@@H](F)C4)c3F)cc3cnc(NCC4CC4)nc32)C1 (mixture of isomers) | 5.32 |
| CC(=O)N[C@H]1C[C@H](n2c(=O)c(-c3c(F)ccc(NS(=O)(=O)N4CC[C@@H](F)C4)c3F)cc3cnc(NCC4CC4)nc32)C1 | 6.39 |

[1] CC(=O)NCCCCCNc1ncc2cc(-c3c(F)ccc(NS(=O)(=O)N4CC[C@@H](F)C4)c3F)c(=O)n(C)c2n1
[2] Cn1c(=O)c(-c2c(F)ccc(NS(=O)(=O)N3CC[C@@H](F)C3)c2F)cc2cnc(NCCCC(=O)OC(C)(C)C)nc21
[3] CC(=O)N[C@H]1CC[C@H](Nc2ncc3cc(-c4c(F)ccc(NS(=O)(=O)N5CC[C@@H](F)C5)c4F)c(=O)n(C)c3n2)C1
Q: Sort the molecules on pEC50; start with the lowest figure. List the labels, following the order given in the request.
Result: 3, 1, 2
(3: 5.05, 1: 5.50, 2: 6.04)

* * *

# System: HCT116 cells (WT BRAF), ERK phospho-T202/Y204
# assay-notes: HTRF assay for P-ERK determination in HCT116 cells (BRAF activation, paradox)
# Assay type: cell-based
# test-settings: Homo sapiens, HCT-116; HCT116 cells, 1 hour drug incubation; activation relative to maximum Dabrafenib-mediated activation (100%); top concentration 10 μM; read-out: P-ERK_HCT-116: EC50—50PCT
quantity-measured: EC50 (µM)

Examples with answers:
| molecule | EC50, µM |
| --- | --- |
| Cl.Cn1c(=O)c(-c2c(F)ccc(NS(=O)(=O)N3CC[C@@H](F)C3)c2F)cc2cnc(NCCCC3CCNCC3)nc21 [Example 18, hydrochloride] | 5.87 |
| Cn1c(=O)c(-c2c(F)ccc(NS(=O)(=O)N3CC[C@@H](F)C3)c2F)cc2cnc(NCCOc3ccccc3)nc21 | 0.711 |
| CCN(C)S(=O)(=O)Nc1ccc(F)c(-c2cc3cnc(NCCCNC)nc3n(C)c2=O)c1F.Cl [Example 17, hydrochloride] | 7.53 |
| Cn1c(=O)c(-c2c(F)ccc(NS(=O)(=O)C3CCCC3)c2F)cc2cnc(NCCC3CCN(C(=O)OC(C)(C)C)CC3)nc21 | 9.46 |

[a] Cn1c(=O)c(-c2c(F)ccc(NS(=O)(=O)N3CC[C@@H](F)C3)c2F)cc2cnc(NC3CCCC3)nc21
[b] Cn1c(=O)c(-c2c(F)ccc(NS(=O)(=O)N3CC[C@@H](F)C3)c2F)cc2cnc(NCCc3cnc(CC(=O)OC(C)(C)C)nc3)nc21
Q: Return label of the item with the larger EC50. Candidates: a , b . Give the chosen item's label as your response.
Result: b

src = patent US20230322776A1
